Molecular target: ERα (Homo sapiens)
Construct: host or cells: MCF7
Sequence (P03372 1-595): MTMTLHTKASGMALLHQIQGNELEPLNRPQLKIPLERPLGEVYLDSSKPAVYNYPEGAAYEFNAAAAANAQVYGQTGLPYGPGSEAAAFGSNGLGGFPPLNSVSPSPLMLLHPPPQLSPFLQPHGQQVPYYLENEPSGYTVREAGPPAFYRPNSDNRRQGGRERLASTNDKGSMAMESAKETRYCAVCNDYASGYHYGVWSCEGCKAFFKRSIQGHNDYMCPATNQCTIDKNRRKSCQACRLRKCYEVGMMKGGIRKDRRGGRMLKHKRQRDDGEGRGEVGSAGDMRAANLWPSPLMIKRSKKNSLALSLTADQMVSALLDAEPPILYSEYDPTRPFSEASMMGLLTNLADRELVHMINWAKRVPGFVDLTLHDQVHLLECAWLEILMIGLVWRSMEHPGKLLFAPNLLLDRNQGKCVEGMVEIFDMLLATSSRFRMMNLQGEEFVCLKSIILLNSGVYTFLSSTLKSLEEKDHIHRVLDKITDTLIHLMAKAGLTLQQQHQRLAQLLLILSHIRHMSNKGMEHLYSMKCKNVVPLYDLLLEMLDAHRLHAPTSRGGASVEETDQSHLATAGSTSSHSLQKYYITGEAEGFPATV
Test: Estrogen receptor degradation activity: breast cancer cell ERα in cell western assay (MCF7 cells)
Assay type: cell-based
Conditions: 4 hours post compound addition, concentration which degrades 50% of the estrogen receptor, read-out: Degradation IC50
Description: Test: Estrogen Receptor Degradation Activity Said test involves measuring the in vitro degradation activity of the compounds of the Table 1a. The measurements of the degradation activities were made using a breast cancer cell ERα in cell western assay as described hereunder. […] Integrated intensities in the green fluorescence and red fluorescence were measured to determine the levels of ERα and DNA respectively. […]
observation type: DC50

CCOC(c1ccc(C2=C(c3ccc(Cl)cc3Cl)CCCc3cc(C(=O)O)ccc32)cc1)C1CN(CCCF)C1 (single isomer, unassigned; isomer 1) [Example 229]	0.6 nM
Oc1ccc2c(c1)CCCC(c1ccc(Cl)cc1Cl)=C2c1ccc(CC2CN(CCCF)C2)cc1 [Example 254]	1.4 nM
Cc1c(C(=O)O)ccc2c1CCCC(c1ccc(Cl)cc1Cl)=C2c1ccc(CC2CN(CCCF)C2)cc1.Cl [Example 250, hydrochloride]	0.6 nM
COc1c(C(=O)O)ccc2c1CCCC(c1ccc(F)cc1F)=C2c1ccc(CC2CN(CCCF)C2)cc1 [Example 270]	225 nM
O=C(O)c1ccc2c(c1)CCCC(c1nc(Cl)ccc1C(F)(F)F)=C2c1ccc(CC2CN(CCCF)C2)cc1 [Example 300]	11.2 nM

## Task Consider the compound O=C(O)c1ccc2c(c1)CCCC(c1ccccc1CC(F)(F)F)=C2c1ccc(CC2CN(CCCF)C2)cc1 [Example 301] and give its measured DC50.
## Result 0.5 nM

## Task Any idea what its DC50 is? The compound is Cc1c(Cl)cccc1C1=C(c2ccc(CC3CN(CCC(F)F)C3)cc2)c2ccc(C(=O)O)cc2CCC1 [Example 293]
## Result 0.6 nM
